# Test system: Serratia marcescens NCTC 10211
# Procedure summary: MIC by agar dilution, single strains
# Assay type: cell-based
# Condition description: NCTC10211, 22 hours of incubation, read-out: Minimum inhibitory concentration (MIC)
Outcome measure: MIC
Write the figure, then the unit, nothing else.

Here's what some known entries look like.
- Molecule: "CSCC[C@H](N)C(=O)N[C@@H](CCl)C(=O)NC(C)P(=O)(O)O (stereo partly shown) [compound H]"
  Outcome measure: "MIC"
  Measured result: "0.25 µg/mL"
- Molecule: "CSCC[C@H](N)C(=O)N[C@@H](C)C(=O)NC(C)P(=O)(O)O (stereo partly drawn) [compound J, L-methionyl-L-alanyl-D/L fosfalin]"
  Outcome measure: "MIC"
  Measured result: "0.5 µg/mL"
- Molecule: "CCC[C@H](N)C(=O)N[C@@H](CCl)C(=O)NC(C)P(=O)(O)O (stereo partly shown) [compound G]"
  Outcome measure: "MIC"
  Measured result: "0.5 µg/mL"

// moving on: another record for MIC
Any idea what its MIC is? The molecule is CCC[C@H](N)C(=O)N[C@@H](C)C(=O)NC(C)P(=O)(O)O (stereo partly drawn) [compound I, L-norvalinyl-L-alanyl-D/L-fosfalin] 0.25 µg/mL

----------
The following compounds are listed with their measured MIC90 values.
# Tested on: carbapenemase-producing Enterobacteriaceae
# Procedure summary: MIC by agar dilution
# Type: cell-based
Give the quantity in µg/mL, number only.

- Compound: "C[C@H](N)C(=O)N[C@@H](C)P(=O)(O)O [Alafosfalin, L-alanyl-L-1-aminoethylphosphonic acid]"
  Unit info: "µg/mL"
  Measured result: 4

Any idea what its MIC90 is? The compound is C[C@H](NC(=O)[C@H](CCl)NC(=O)[C@@H](N)CCl)P(=O)(O)O [β-Cl-Ala-β-Cl-Alafosfalin] 8

Any idea what its MIC90 is? The compound is C[C@@H]1O[C@@H]1P(=O)(O)O [Fosfomycin] 32

Any idea what its MIC90 is? The compound is C[C@H](NC(=O)[C@@H](N)CCl)P(=O)(O)O [β-Cl-Alafosfalin] 2

----------
The following compounds are listed with their measured MIC Range values.
# Test system: All S. aureus (50)
# Procedure summary: MIC by agar dilution
# Type: cell-based, Staphylococcus aureus
# Condition description: All S. aureus (50)

Here's what some known entries look like.
- Cpd smiles: "N[C@@H](CCl)C(=O)N[C@@H](CCl)C(=O)O"
  MIC Range: "0.125 to 16 mg/L"
- Cpd smiles: "C[C@H](N)C(=O)N[C@@H](C)C(=O)N[C@@H](C)P(=O)(O)O"
  MIC Range: "0.5 to 32 mg/L"
- Cpd smiles: "C[C@H](NC(=O)[C@@H](N)CCl)P(=O)(O)O"
  MIC Range: "0.125 to 4 mg/L"
- Cpd smiles: "C[C@H](N)C(=O)N[C@@H](C)P(=O)(O)O"
  MIC Range: "0.125 to 16 mg/L"

// moving on: another record for MIC Range
Request - read-out MIC Range | tested on All S. aureus (50) | compound "C[C@H](NC(=O)[C@H](CCl)NC(=O)[C@@H](N)CCl)P(=O)(O)O" 2 to 16 mg/L

----------
# Tested on: methicillin-sensitive Staphylococcus aureus
# Procedure summary: MIC by agar dilution
# Format: cell-based
# Condition description: MSSA (13)
The following molecules are listed with their measured MIC Range values.

Here's what some known entries look like.
- Cpd smiles: "C[C@H](NC(=O)[C@@H](N)CCl)P(=O)(O)O"
  MIC Range: "0.5 to 4 µg/mL"
- Cpd smiles: "C[C@H](NC(=O)[C@H](CCl)NC(=O)[C@@H](N)CCl)P(=O)(O)O"
  MIC Range: "4 to 16 µg/mL"
- Cpd smiles: "C[C@H](N)C(=O)N[C@@H](C)P(=O)(O)O"
  MIC Range: "0.25 to 16 µg/mL"
- Cpd smiles: "C[C@H](N)C(=O)N[C@@H](C)C(=O)N[C@@H](C)P(=O)(O)O"
  MIC Range: "0.5 to 32 µg/mL"
- Cpd smiles: "C[C@@H]1O[C@@H]1P(=O)(O)O"
  MIC Range: "2 to 16 µg/mL"

Any idea what its MIC Range is? The molecule is "N[C@@H](CCl)C(=O)N[C@@H](CCl)C(=O)O" 0.5 to 2 µg/mL

----------
# Test system: methicillin-resistant Staphylococcus aureus
# Procedure summary: MIC by agar dilution
# Format: cell-based
# Condition description: Staphylococcus aureus, MRSA, read-out: Modal MIC (most frequent MIC)
# Procedure: A collection of 50 isolates of Staphylococci aureus included 36 strains of methicillin-resistant S. aureus (MRSA) frequently encountered in Europe, including strains isolated in Belgium, Finland, France, Germany and the United Kingdom. Another strain of MRSA, NCTC 11939, was included as a control, as well as a methicillin-sensitive control (NCTC 6571). […] Determining the minimum inhibitory concentrations (MIC). All the MICs were determined using an agar dilution method. […]
The following compounds are listed with their measured MIC values.
Give the quantity in µg/mL, number only.

Any idea what its MIC is? The compound is C[C@H](N)C(=O)N[C@@H](C)P(=O)(O)O [Alafosfalin, L-alanyl-L-1-aminoethylphosphonic acid] 4

Any idea what its MIC is? The compound is N[C@@H](CCl)C(=O)N[C@@H](CCl)C(=O)O [β-Cl-Ala-β-Cl-Ala, β-chloro-L-alanyl-β-chloro-L-alanine] 2

Any idea what its MIC is? The compound is C[C@H](NC(=O)[C@@H](N)CCl)P(=O)(O)O [β-Cl-Alafosfalin] 2

Any idea what its MIC is? The compound is C[C@H](NC(=O)[C@H](CCl)NC(=O)[C@@H](N)CCl)P(=O)(O)O [β-Cl-Ala-β-Cl-Alafosfalin] 16

----------
The following compounds are listed with their measured MIC values.
# Test system: Yersinia enterocolitica NCTC 11176
# Procedure summary: MIC by agar dilution, single strains
# Assay type: cell-based
# Condition description: NCTC11176, 22 hours of incubation, read-out: Minimum inhibitory concentration (MIC)
Give the quantity in µg/mL, number only.

- Compound: "CSCC[C@H](N)C(=O)N[C@@H](CCl)C(=O)NC(C)P(=O)(O)O (stereo partly shown)"
  Unit info: "µg/mL"
  MIC: 0.25
- Compound: "CSCC[C@H](N)C(=O)N[C@@H](C)C(=O)NC(C)P(=O)(O)O (stereo partly shown)"
  Unit info: "µg/mL"
  MIC: 0.5
- Compound: "CCC[C@H](N)C(=O)N[C@@H](C)C(=O)NC(C)P(=O)(O)O (stereo partly shown)"
  Unit info: "µg/mL"
  MIC: 0.125

// moving on: another record for MIC
Request - read-out MIC | tested on Yersinia enterocolitica NCTC 11176 | compound CCC[C@H](N)C(=O)N[C@@H](CCl)C(=O)NC(C)P(=O)(O)O (stereo partly shown) 0.25
